tested on: Staphylococcus aureus; assay: Antimicrobial activity against Staphylococcus aureus at 25 ug/ml after 24 hrs by agar diffusion method; format: functional; conditions: read-out: IZ
measurement.kind: zone of inhibition at 25 µg/mL

                               smiles_input                measurement_kind  assay_value
0  CN1C[C@@H](c2ccc(Br)cc2)[C@@]2(CCc3c([nH]c4ccccc34)C2=O)[C@]12C(=O)Nc1ccccc12  zone of inhibition at 25 µg/mL        11 mm
1  CN1C[C@@H](c2ccccc2)[C@@]2(CCc3c([nH]c4ccccc34)C2=O)[C@]12C(=O)c1cccc3cccc2c13  zone of inhibition at 25 µg/mL        14 mm
2  COc1ccc([C@@H]2CN(C)C3(C(=O)c4ccccc4C3=O)[C@]23CCc2c([nH]c4ccccc24)C3=O)cc1  zone of inhibition at 25 µg/mL         9 mm
3  CN1C[C@@H](c2ccc(Cl)cc2)[C@@]2(CCc3c([nH]c4ccccc34)C2=O)[C@]12C(=O)c1cccc3cccc2c13  zone of inhibition at 25 µg/mL        14 mm
